# MEASUREMENT TARGET: Receptor-type tyrosine-protein kinase FLT3 (Homo sapiens, UniProt P36888)
# Sequence (P36888 whole entry): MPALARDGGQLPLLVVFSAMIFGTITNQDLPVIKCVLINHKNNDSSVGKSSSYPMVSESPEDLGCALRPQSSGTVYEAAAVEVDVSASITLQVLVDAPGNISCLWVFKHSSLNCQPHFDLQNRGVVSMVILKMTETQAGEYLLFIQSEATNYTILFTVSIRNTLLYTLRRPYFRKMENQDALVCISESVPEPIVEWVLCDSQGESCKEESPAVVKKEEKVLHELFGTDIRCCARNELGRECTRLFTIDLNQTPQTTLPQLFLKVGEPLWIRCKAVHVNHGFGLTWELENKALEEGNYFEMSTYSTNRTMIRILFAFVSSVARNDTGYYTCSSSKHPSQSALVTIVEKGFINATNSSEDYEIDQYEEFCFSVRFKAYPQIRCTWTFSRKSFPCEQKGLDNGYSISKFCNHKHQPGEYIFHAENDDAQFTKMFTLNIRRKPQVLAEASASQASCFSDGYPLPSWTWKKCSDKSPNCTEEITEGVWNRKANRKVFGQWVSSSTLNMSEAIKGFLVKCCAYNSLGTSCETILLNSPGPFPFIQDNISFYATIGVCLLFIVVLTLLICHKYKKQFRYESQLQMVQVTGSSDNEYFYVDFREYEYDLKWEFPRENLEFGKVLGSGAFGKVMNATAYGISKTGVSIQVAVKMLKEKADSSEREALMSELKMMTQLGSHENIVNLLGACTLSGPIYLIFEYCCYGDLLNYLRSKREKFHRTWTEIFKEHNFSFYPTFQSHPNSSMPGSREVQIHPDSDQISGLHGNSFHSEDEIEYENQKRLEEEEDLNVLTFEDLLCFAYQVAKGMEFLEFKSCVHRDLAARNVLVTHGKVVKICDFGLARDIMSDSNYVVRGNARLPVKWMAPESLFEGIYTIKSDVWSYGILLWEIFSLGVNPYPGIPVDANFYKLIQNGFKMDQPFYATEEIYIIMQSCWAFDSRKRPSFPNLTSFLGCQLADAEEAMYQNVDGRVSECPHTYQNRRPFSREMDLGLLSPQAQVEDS
# PROTOCOL DETAILS: Inhibition of recombinant FLT3
MEASURE: IC50 (µM)

INSERT INTO assay_data (molecule, measurement_target, unit_of_measure, inequality_operator, reported_result) VALUES
  ('O=C1C[C@H](O)[C@@H]2c3c(ccc(O)c31)-c1ccc(O)c3c1[C@@]2(O)CCC3=O', 'Receptor-type tyrosine-protein kinase FLT3 (Homo sapiens, UniProt P36888)', 'µM', '=', 1.87),
  ('COc1cc(O)c2c(c1)-c1cc(O)c(O)cc1COC2=O', 'Receptor-type tyrosine-protein kinase FLT3 (Homo sapiens, UniProt P36888)', 'µM', '>', 34.6),
  ('COc1cc(O)c2c(c1)C1(OC2=O)C(=O)C(=O)CC1C (stereo not given)', 'Receptor-type tyrosine-protein kinase FLT3 (Homo sapiens, UniProt P36888)', 'µM', '>', 36.2),
  ('Cc1cc(O)cc2oc(=O)c3c(O)cc(OS(=O)(=O)O)cc3c12 [Alternariol 5-O-Sulfate]', 'Receptor-type tyrosine-protein kinase FLT3 (Homo sapiens, UniProt P36888)', 'µM', '=', 0.975),
  ('COc1cc(O)c2c(=O)oc3c(O)c(O)cc(C)c3c2c1', 'Receptor-type tyrosine-protein kinase FLT3 (Homo sapiens, UniProt P36888)', 'µM', '=', 1.83);

----------
# MEASUREMENT TARGET: Serine/threonine-protein kinase PLK1 (Homo sapiens, UniProt P53350)
# Sequence (P53350 whole entry): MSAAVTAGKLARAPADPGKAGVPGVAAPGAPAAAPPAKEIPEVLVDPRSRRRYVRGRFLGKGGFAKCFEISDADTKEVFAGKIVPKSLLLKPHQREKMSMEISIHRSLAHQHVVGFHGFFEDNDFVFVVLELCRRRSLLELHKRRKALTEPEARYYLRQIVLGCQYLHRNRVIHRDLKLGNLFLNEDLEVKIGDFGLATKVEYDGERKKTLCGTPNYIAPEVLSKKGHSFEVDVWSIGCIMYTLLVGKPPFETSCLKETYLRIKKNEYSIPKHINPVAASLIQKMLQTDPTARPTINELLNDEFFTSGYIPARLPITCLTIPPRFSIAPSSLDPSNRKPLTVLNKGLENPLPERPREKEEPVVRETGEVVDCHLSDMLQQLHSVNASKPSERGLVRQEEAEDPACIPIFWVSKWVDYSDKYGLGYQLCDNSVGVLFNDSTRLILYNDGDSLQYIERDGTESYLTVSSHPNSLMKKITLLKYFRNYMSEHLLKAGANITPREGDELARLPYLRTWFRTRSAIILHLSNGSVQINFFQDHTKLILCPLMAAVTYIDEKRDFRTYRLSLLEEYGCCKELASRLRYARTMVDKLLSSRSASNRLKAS
# PROTOCOL DETAILS: Inhibition of recombinant PLK1
pIC50: −log10 of the molar value.
Measured pIC50, listed per entry.
MEASURE: pIC50

INSERT INTO measurements (molecule, reported_result) VALUES
  ('COc1cc(O)c2c(c1)-c1cc(O)c(O)cc1COC2=O [Alterlactone]', '< 4.46'),
  ('COc1cc(O)c(C(=O)O)c(C2=C(C)C[C@@H](O)C2=O)c1 [Alternarienonic Acid]', '< 4.44'),
  ('Cc1cc(O)c(O)cc1-c1cc(O)cc(O)c1C(=O)O [Desmethylaltenusin]', '< 4.44'),
  ('COc1cc(O)c2c(c1)C1(OC2=O)C(=O)C(=O)CC1C (stereo not given) [TALAROFLAVONE]', '< 4.44'),
  ('O=C1C[C@H](O)[C@@H]2c3c(ccc(O)c31)-c1ccc(O)c3c1[C@@]2(O)CCC3=O [Altertoxin I]', '< 4.55');

----------
# MEASUREMENT TARGET: Aurora kinase A (Homo sapiens)
# PROTOCOL DETAILS: Inhibition of recombinant Aurora A
pIC50: −log10 of the molar value.
MEASURE: pIC50

INSERT INTO measurements (molecule, inequality_operator, reported_result) VALUES
  ('COc1cc(O)c2c(c1)C1(OC2=O)C(=O)C(=O)CC1C (centres undefined)', '<', 4.44),
  ('Cc1cc(O)cc2oc(=O)c3c(O)cc(O)cc3c12', '=', 5.55),
  ('COc1cc(O)c2c(c1)-c1cc(O)c(O)cc1COC2=O', '<', 4.46),
  ('Cc1cc(O)cc2oc(=O)c3c(O)cc(OS(=O)(=O)O)cc3c12 [Alternariol 5-O-Sulfate]', '=', 5.94);

----------
# MEASUREMENT TARGET: Insulin-like growth factor 1 receptor (Homo sapiens)
# Sequence (P08069 31-736 limits assumed): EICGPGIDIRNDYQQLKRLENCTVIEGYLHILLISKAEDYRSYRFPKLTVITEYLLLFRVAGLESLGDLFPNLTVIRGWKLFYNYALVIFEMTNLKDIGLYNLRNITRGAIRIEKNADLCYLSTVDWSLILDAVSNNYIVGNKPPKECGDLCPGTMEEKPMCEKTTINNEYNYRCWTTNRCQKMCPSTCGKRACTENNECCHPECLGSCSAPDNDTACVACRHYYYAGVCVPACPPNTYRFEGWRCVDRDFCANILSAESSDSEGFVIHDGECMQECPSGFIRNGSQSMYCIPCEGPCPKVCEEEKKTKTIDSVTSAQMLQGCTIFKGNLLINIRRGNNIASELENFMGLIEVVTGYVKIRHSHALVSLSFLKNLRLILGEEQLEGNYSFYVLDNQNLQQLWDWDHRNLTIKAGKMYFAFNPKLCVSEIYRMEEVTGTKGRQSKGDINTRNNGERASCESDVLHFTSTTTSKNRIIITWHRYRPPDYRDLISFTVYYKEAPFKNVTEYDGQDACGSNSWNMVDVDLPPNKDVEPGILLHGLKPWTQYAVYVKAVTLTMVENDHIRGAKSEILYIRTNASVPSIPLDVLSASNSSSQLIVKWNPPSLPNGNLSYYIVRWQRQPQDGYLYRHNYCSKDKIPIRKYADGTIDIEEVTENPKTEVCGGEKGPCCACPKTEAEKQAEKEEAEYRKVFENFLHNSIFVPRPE
# Sequence (P08069 741-1367 limits assumed): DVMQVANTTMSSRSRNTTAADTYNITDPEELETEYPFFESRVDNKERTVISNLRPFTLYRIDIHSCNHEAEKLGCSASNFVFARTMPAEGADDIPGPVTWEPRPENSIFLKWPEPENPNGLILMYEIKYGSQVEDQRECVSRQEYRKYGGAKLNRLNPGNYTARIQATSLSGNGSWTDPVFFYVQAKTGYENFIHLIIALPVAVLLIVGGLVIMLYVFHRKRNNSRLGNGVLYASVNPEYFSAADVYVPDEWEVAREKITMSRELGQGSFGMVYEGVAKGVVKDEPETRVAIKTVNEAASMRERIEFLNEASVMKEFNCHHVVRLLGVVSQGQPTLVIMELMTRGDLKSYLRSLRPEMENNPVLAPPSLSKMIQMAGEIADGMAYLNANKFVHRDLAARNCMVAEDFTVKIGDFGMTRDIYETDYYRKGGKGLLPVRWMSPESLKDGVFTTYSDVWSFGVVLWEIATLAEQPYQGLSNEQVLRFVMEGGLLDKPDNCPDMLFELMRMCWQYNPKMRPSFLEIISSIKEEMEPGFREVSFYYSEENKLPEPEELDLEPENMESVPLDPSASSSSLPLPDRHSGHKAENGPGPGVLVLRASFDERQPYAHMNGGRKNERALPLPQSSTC
# PROTOCOL DETAILS: Inhibition of recombinant IGF1R
compounds and their reported IC50
MEASURE: IC50

INSERT INTO assay_data (compound, measurement_target, reported_result) VALUES
  ('COc1cc(O)c2c(=O)oc3c(O)c(O)cc(C)c3c2c1', 'Insulin-like growth factor 1 receptor (Homo sapiens)', '3.15 µM'),
  ('COc1cc(O)c2c(c1)-c1cc(O)c(O)cc1COC2=O', 'Insulin-like growth factor 1 receptor (Homo sapiens)', '> 34.6 µM'),
  ('COc1cc(O)c2c(c1)C1(OC2=O)C(=O)C(=O)CC1C (stereo not drawn)', 'Insulin-like growth factor 1 receptor (Homo sapiens)', '> 36.2 µM');

----------
# MEASUREMENT TARGET: UniProt P06213
# PROTOCOL DETAILS: Inhibition of recombinant INSR
pIC50: −log10 of the molar value.
MEASURE: pIC50

INSERT INTO assay_data (structure_as_smiles, measurement_target, reported_result) VALUES
  ('COc1cc(O)c2c(c1)-c1cc(O)c(O)cc1COC2=O', 'UniProt P06213', '< 4.46');

----------
# MEASUREMENT TARGET: NUAK family SNF1-like kinase 1 (Homo sapiens)
# Sequence (O60285 whole entry): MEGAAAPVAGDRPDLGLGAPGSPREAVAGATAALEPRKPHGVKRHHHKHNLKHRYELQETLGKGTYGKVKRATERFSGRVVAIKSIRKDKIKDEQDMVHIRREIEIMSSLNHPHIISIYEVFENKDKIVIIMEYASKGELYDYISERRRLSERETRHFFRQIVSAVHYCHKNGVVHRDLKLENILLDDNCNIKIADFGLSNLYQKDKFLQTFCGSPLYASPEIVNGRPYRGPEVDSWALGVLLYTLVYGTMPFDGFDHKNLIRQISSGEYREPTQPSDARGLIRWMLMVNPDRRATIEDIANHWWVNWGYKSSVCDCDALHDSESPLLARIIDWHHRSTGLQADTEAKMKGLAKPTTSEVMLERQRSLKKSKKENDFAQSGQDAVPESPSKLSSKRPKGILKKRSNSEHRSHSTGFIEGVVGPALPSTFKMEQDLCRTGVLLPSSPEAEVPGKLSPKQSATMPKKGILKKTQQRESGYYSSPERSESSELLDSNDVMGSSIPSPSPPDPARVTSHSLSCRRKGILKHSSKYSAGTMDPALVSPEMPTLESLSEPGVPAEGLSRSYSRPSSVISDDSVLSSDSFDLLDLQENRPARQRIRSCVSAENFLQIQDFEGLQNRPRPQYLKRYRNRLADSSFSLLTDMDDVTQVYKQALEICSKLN
# PROTOCOL DETAILS: Inhibition of recombinant ARK5
IC50 listing for selected molecules.
MEASURE: IC50

INSERT INTO results (molecule, reported_result) VALUES
  ('Cc1cc(O)cc2oc(=O)c3c(O)cc(O)cc3c12', '3.67 µM'),
  ('Cc1cc(O)cc2oc(=O)c3c(O)cc(OS(=O)(=O)O)cc3c12 [Alternariol 5-O-Sulfate]', '2.21 µM'),
  ('COc1cc(O)c2c(=O)oc3c(O)c(O)cc(C)c3c2c1', '1.21 µM'),
  ('COc1cc(O)c2c(c1)C1(OC2=O)C(=O)C(=O)CC1C (stereo not given)', '> 36.2 µM'),
  ('COc1cc(O)c2c(c1)-c1cc(O)c(O)cc1COC2=O', '> 34.6 µM');

----------
# MEASUREMENT TARGET: UniProt P35916
# Sequence (P35916 whole entry): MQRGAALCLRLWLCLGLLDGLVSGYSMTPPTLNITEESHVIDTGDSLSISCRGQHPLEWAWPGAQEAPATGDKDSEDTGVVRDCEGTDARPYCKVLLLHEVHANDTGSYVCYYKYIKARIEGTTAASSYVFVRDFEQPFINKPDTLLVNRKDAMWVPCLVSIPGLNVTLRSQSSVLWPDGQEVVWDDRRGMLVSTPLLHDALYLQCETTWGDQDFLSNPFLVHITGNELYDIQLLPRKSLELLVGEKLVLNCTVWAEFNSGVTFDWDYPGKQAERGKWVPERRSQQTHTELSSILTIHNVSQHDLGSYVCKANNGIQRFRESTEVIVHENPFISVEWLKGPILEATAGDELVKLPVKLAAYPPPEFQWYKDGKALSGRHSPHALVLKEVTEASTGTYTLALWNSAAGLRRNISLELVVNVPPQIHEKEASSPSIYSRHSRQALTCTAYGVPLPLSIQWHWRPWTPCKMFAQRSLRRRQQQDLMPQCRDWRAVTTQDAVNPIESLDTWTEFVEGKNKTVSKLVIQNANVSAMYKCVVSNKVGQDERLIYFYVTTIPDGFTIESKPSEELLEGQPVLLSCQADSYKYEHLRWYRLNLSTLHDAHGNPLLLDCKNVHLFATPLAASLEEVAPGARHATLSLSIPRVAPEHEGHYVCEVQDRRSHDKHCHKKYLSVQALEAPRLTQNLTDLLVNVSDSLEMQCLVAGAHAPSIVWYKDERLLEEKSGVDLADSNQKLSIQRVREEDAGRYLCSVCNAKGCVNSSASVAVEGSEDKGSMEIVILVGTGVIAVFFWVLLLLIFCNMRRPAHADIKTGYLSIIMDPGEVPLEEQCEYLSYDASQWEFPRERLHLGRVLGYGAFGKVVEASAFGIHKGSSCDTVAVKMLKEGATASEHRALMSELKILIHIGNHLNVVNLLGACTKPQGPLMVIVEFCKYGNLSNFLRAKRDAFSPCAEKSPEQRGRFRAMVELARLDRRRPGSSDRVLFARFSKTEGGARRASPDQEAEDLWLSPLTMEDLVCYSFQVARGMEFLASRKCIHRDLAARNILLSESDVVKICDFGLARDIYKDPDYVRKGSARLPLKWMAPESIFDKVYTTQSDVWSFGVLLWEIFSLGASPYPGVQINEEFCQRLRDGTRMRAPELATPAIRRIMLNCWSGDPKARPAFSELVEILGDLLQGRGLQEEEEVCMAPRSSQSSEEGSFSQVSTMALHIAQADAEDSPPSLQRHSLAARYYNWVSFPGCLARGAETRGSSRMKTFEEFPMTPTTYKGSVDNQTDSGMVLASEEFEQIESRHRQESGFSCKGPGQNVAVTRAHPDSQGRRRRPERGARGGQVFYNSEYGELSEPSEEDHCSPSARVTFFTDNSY
# PROTOCOL DETAILS: Inhibition of recombinant VEGFR3
pIC50: −log10 of the molar value.
Reported pIC50 values for a set of compounds
MEASURE: pIC50

INSERT INTO results (compound, measurement_target, reported_result) VALUES
  ('COc1cc(O)c2c(c1)-c1cc(O)c(O)cc1COC2=O [Alterlactone]', 'UniProt P35916', '< 4.46'),
  ('COc1cc(O)c2c(c1)C1(OC2=O)C(=O)C(=O)CC1C (stereo not drawn) [TALAROFLAVONE]', 'UniProt P35916', '< 4.44'),
  ('COc1cc(O)c2c(=O)oc3c(O)c(O)cc(C)c3c2c1', 'UniProt P35916', 5.87);

----------
# MEASUREMENT TARGET: UniProtKB P24941
# PROTOCOL DETAILS: Inhibition of recombinant CDK2/CycA
# Lookup of reported IC50 keyed by entry
MEASURE: IC50

INSERT INTO measurements (compound, reported_result) VALUES
  ('COc1cc(O)c(C(=O)O)c(C2=C(C)C[C@@H](O)C2=O)c1', '> 35.9 µM'),
  ('Cc1cc(O)c(O)cc1-c1cc(O)cc(O)c1C(=O)O', '> 36.2 µM'),
  ('Cc1cc(O)cc2oc(=O)c3c(O)cc(OS(=O)(=O)O)cc3c12 [Alternariol 5-O-Sulfate]', '2.48 µM'),
  ('COc1cc(O)c2c(c1)C1(OC2=O)C(=O)C(=O)CC1C (stereo unspecified)', '> 36.2 µM'),
  ('O=C1C[C@H](O)[C@@H]2c3c(ccc(O)c31)-c1ccc(O)c3c1[C@@]2(O)CCC3=O', '> 28.3 µM'),
  ('COc1cc(O)c2c(c1)-c1cc(O)c(O)cc1COC2=O', '> 34.6 µM');
